Taken from ChEMBL document CHEMBL1201862.

- Test system: RPMI-8226
- assayName: NCI tumour cell line growth inhibition, 48 h
Calls of active or inactive are those of the source. Rule as the data show it: active = GI50 up to about 1.1 µM and inactive = higher.
Provide the recorded GI50 for the entries that follow.

Consider the following illustrative entries.
NC1N=Nc2ccccc21 (stereo not given)    > 100 µM (inactive)
Oc1ccc(N=C2CCC(=C(c3ccccc3)c3ccc(Nc4ccc(O)cc4)cc3)CC2)cc1    46.1 µM (inactive)
Cn1c2c3ccc(Cl)cc3nc-2c(Cl)c2ccccc21    4.31 µM (inactive)

Please supply GI50 for each of the following items, keeping them in order.
1. Nc1nc(N)c(-c2ccccc2)c(C(=O)Nc2ccc(Cl)c(Cl)c2)n1
2. COc1ccc(/C=C2\CN(C)Cc3c2nc(N)nc3-c2ccc(OC)cc2)cc1

OUT:
["46.8 µM (inactive)", "24.6 µM (inactive)"]
